# Test system: Caco-2 cells
# method: Membrane permeability test using Caco-2 cells with preincubation
# Type: in vitro ADME
# test.conditions: Caco-2 cells, preincubation 20 to 24 hours; apical FaSSIF/HBSS 1% DMSO pH 6.0, basal HBSS 4% BSA pH 7.4; basal sample at 180 minutes
# Experimental: The permeability coefficient (Caco-2 Papp (cm/sec)) is calculated using a numerical expression 1. [Expression 1] Papp = (1)/(C1 (0) × S) × (dQ)/(dt) [formula] dQ/dt represents the permeation rate of drug (the amount of drug appearing on the Basal side per unit time), S represents the total surface area of cells, and C1(0) represents the concentration of drug added on the Apical side. […]
Starred links: 1 amine or outer side, 2 acyl side, 3 side chain; linkers in the order of their positions; H or OH if unused. Positions of bridges follow the written chain, without caps; N, C: chain ends. Non-standard residues stand in square brackets, D forms with d. Residues, ends and D or L forms follow the SMILES beside them. *: point of attachment. NMeF = CN[C@@H](Cc1ccccc1)C(=O)O; NMeGABA = CN(CCCC(=O)[*:2])[*:1]; NMeI = CC[C@H](C)[C@H](NC)C(=O)O; NMeT = CN[C@H](C(=O)O)[C@@H](C)O; hPhe = N[C@@H](CCc1ccccc1)C(=O)O; NMeβAla = CN(CCC(=O)[*:2])[*:1]; NMeL = CN[C@@H](CC(C)C)C(=O)O; NMeAbu = CC[C@H](NC)C(=O)O; NMeA = CN[C@@H](C)C(=O)O; Piperidide = C1CCN(*)CC1; tBu = CC(C)(C)*

- molecule: "CC[C@H](C)[C@@H]1NC(=O)[C@H](C)NC(=O)[C@H](CC(C)C)N(C)C(=O)[C@H](COC(C)(C)C)NC(=O)[C@H](CC(C)C)N(C)C(=O)[C@@H]2CCCN2C(=O)[C@H](Cc2ccccc2)NC(=O)CCN(C)C(=O)[C@H](CC(C)C)N(C)C(=O)CCCN(C)C(=O)C[C@@H](C(=O)N2CCCCC2)NC(=O)[C@H](Cc2ccccc2)N(C)C(=O)[C@H](CC(C)C)NC(=O)[C@H](CC)N(C)C1=O [pd017] ([NMeGABA][NMeL][NMeβAla]FP[NMeL]S(tBu)[NMeL]AI[NMeAbu]L[NMeF]D-Piperidide; lactam N-14)"
  Caco2 Papp (10^-6 cm/sec): "0.09 10^-6 cm/sec"
- molecule: "CC[C@H](C)[C@H]1C(=O)N(C)[C@@H]([C@@H](C)O)C(=O)N(C)[C@@H](CC)C(=O)N(C)[C@@H](CC(C)C)C(=O)N2CCC[C@H]2C(=O)N[C@H](C(=O)N2CCCCC2)CC(=O)N(C)[C@@H](C)C(=O)N[C@@H](CC(C)C)C(=O)N(C)[C@@H](CC(C)C)C(=O)N(C)[C@@H](C)C(=O)N2CCC[C@H]2C(=O)N[C@@H](CCc2ccccc2)C(=O)N(C)[C@@H](CC(C)C)C(=O)N1C [pd125] ([NMeA]L[NMeL][NMeA]P[hPhe][NMeL][NMeI][NMeT][NMeAbu][NMeL]PD-Piperidide; lactam N-13)"
  Caco2 Papp (10^-6 cm/sec): "0.13 10^-6 cm/sec"
